Measured viability, T/C, listed per entry.
Tested on: T-47D spheroids with HUVEC/MSC, viability
Test: Anticancer human tumor T-47D cell line growth inhibition [PI3K];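 also: spheroids exposed to agents for seven days before reading; percent of DMSO vehicle control luminescence so 100% = untreated growth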
Conditions: compound 0.316 µM; stronger effect = lower value

>>> result("CNC(=O)c1ccc(N2C(=S)N(c3ccc(C#N)c(C(F)(F)F)c3)C(=O)C2(C)C)cc1F")
"105% [middle of 4 runs]"
>>> result("CC(Nc1ncnc2nc[nH]c12)c1cc2cccc(Cl)c2c(=O)n1-c1ccccc1 (stereo unspecified)")
"96.2% [middle of 8 runs]"
>>> result("CCN1CCN(Cc2ccc(Nc3ncc(F)c(-c4cc(F)c5nc(C)n(C(C)C)c5c4)n3)nc2)CC1")
"90.4% [middle of 4 runs]"
>>> result("Cn1ncc(Cl)c1-c1cc(C(=O)NC(CN)Cc2cccc(F)c2)sc1Cl (stereo unspecified)")
"79.4% [middle of 4 runs]"
>>> result("CC1(C)CCC(Nc2ncc(C(F)(F)F)c(-c3c[nH]c4c(P(C)(C)=O)c(C#N)ccc34)n2)CN1 (stereo unspecified)")
"69.9% [middle of 4 runs]"

Here is another compound to look at.
Recorded result, `CCCS(=O)(=O)Nc1ccc(F)c(C(=O)c2c[nH]c3ncc(-c4ccc(Cl)cc4)cc23)c1F` , viability, T/C: 106% [middle of 4 runs]
